# Test system: NCI-H460 lung
# experimental details: NCI tumour cell line growth inhibition, 48 h
Returns one of label 1 or label 0; label 1 when TGI is >= 20 µM.

>  <molecule>
NC(=O)N/N=C(\CC1OC(=O)c2ccccc21)c1ccco1 (configuration not stated)

>  <assigned class>
label 1

$$$$
>  <molecule>
O=C(O)C(SC(=S)c1ccc(C(=S)SC(C(=O)O)c2ccccc2)cc1)c1ccccc1 (configuration not stated)

>  <assigned class>
label 1

$$$$
>  <molecule>
O=C1/C(=C/c2cccc(F)c2)CCCc2ccccc21

>  <assigned class>
label 1

$$$$
>  <molecule>
O=[N+]([O-])c1cc(C(F)(F)F)cc([N+](=O)[O-])c1CCl

>  <assigned class>
label 1

$$$$
>  <molecule>
CCN(CC)CCCCNc1c2ccccc2[n+](C)c2c1[nH]c1ccccc12

>  <assigned class>
label 0

$$$$
>  <molecule>
COc1ccc(C(=O)OC2C(OC3C(O)COC(O[C@H]4C[C@H]5[C@@H]6CC=C7C[C@@H](O)CC[C@]7(C)[C@H]6CC[C@]5(C)[C@H]4[C@H](C)C(=O)CCC(C)C)C3OC(N)=O)OCC(O)C2O)cc1 (some centres not stated)

>  <assigned class>
label 0

$$$$
>  <molecule>
Cc1nc2ccccc2n1COC(Cn1ccnc1)c1ccc(Cl)cc1Cl (configuration not stated)

>  <assigned class>
label 1

$$$$
>  <molecule>
Clc1ccc(NCc2nnc(CCCCCCCCc3nnc(CNc4ccc(Cl)cc4)o3)o2)cc1

>  <assigned class>
label 1

$$$$
>  <molecule>
O=C(Nc1ccc(Cl)cc1)NS(=O)(=O)c1coc2cc(F)ccc2c1=O

>  <assigned class>
label 1

$$$$
>  <molecule>
Cn1c2ccccc2n2c(N=O)c(-c3ccccc3)nc12

>  <assigned class>
label 1

$$$$
>  <molecule>
Nc1ncnc2nc[nH]c12

>  <assigned class>
label 1

$$$$

----------
Overview of reported TGI across a group of compounds:
# Tested on: SK-MEL-5 melanoma
# experimental details: NCI tumour cell line growth inhibition, 48 h

>  <compound>
C/C(=N\NS(=O)(=O)c1ccc(C)cc1)C(CN1CCCCC1)C(c1ccccc1)c1c(O)c2ccccc2oc1=O (stereo unspecified)

>  <TGI>
> 100 µM

$$$$
>  <compound>
C=CCN1C(=O)/C(=C/c2ccco2)N=C1SC/C=C/C

>  <TGI>
44.3 µM

$$$$
>  <compound>
Cc1cc2ccccc2n2c1nc1ccccc12

>  <TGI>
> 100 µM

$$$$
>  <compound>
Cn1c2ccccc2c2c(-c3ccccc3)cc3c(c21)C(=O)C=CC3=O

>  <TGI>
> 9.24 µM

$$$$
>  <compound>
COC(=O)/C=C(/C)n1nc2ccccc2n1

>  <TGI>
> 100 µM

$$$$
>  <compound>
NC(=O)N/N=C(\CC1OC(=O)c2ccccc21)c1ccco1 (stereo unspecified)

>  <TGI>
> 100 µM

$$$$
>  <compound>
COc1ccc(-c2c(C#N)c(N)n(C3OCC(OC(C)=O)C(OC(C)=O)C3OC(C)=O)c(=S)c2C#N)cc1 (stereo unspecified)

>  <TGI>
> 100 µM

$$$$
>  <compound>
COC1=C(OC)C(=O)C(Cc2c(Cl)nc3sc(C)cn23)=C(C)C1=O

>  <TGI>
23.9 µM

$$$$
>  <compound>
CCCCOC(=O)C1C2CCC(O2)C1C(=O)OCCCC (stereo unspecified)

>  <TGI>
> 100 µM

$$$$
>  <compound>
CCOC(=O)NC(=O)c1cn(CCOC(=O)CCCCCCCCC(=O)OCCn2cc(C(=O)NC(=O)OCC)c(=O)[nH]c2=O)c(=O)[nH]c1=O

>  <TGI>
> 100 µM

$$$$
>  <compound>
C=Cc1ccc(C)[n+](C[Si](C)(C)O[Si](C)(C)C)c1

>  <TGI>
> 100 µM

$$$$
>  <compound>
Cc1ccc(S(=O)(=O)N/N=C/c2c(O)ccc3ccccc23)cc1

>  <TGI>
> 100 µM

$$$$
>  <compound>
CN1CCOC(c2ccc(Cl)cc2)O1 (stereo unspecified)

>  <TGI>
> 100 µM

$$$$
>  <compound>
O=C(O)C(SC(=S)c1ccc(C(=S)SC(C(=O)O)c2ccccc2)cc1)c1ccccc1 (stereo unspecified)

>  <TGI>
> 100 µM

$$$$
>  <compound>
O=C(O)c1nc2cc(C(F)(F)F)ccc2nc1Nc1ccc(F)cc1

>  <TGI>
48.1 µM

$$$$
>  <compound>
CN1C(=Nc2ccccc2)SC1=Nc1ccccc1

>  <TGI>
> 100 µM

$$$$
